Measured interaction score, listed per entry.
TEST_TARGET: T1, P9A-bA
T1 chain: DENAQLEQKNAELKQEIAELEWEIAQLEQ
ASSAY_REMARKS: two-hybrid library CCNG1;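 further: natural log of median RNA to DNA barcode read ratio; higher means stronger binding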
# answer = number (no unit)

Consider the worked cases shown below.
DENAQLEQKIAELKQKNAELKWEIAQLEQ [P5A-bA] = -0.7
DKNAQLKQKIAELKQKIAELKWENAQLEQ [P12A-bA] = 0.0326
DEIAQLEQKNAELKQEIAELEWKNAQLKQ [P7A-bA] = -0.632
DKIAQLKQENAELEQKIAELKWENAQLEQ [P8A-bA] = -0.256
DEIAQLEQEIAELEQKNAELKWKNAQLKQ [P3A-bA] = 0.237

For the binder shown here, DKNAQLEQKIAELEQENAELKWEIAQLKQ [4H3354-bA] , give the reported interaction score.
-1.59

Follow-up item: DEIAQLEQENAELEQENAELEWEIAQLEQ [P1A-bA]
-1.21

Follow-up item: DENAQLEQEIAELEQEIAELEWKNAQLKQ [P11A-bA]
-0.585
